Cited source: ChEMBL document CHEMBL5724914

TEST_PARAMETERS: human gut metagenome, 24 h, 2 µM; further: call rule not given here

{"columns": ["MOLECULE", "Bacterial Biotransformation"],
 "data": [
  ["CC(C)(C)NC[C@H](O)COc1nsnc1N1CCOCC1.O=C(O)/C=C\\C(=O)O [TIMOLOL MALEATE]", "Compound NOT metabolized"],
  ["CCN(CC)C(=O)C1(c2ccccc2)CC1CN (stereo not given)", "Compound NOT metabolized"],
  ["C[C@]12CCC(=O)C=C1[C@@H]1C[C@@H]1[C@H]1[C@@H]3[C@@H]4C[C@@H]4[C@@]4(CCC(=O)O4)[C@@]3(C)CC[C@@H]12", "Compound metabolized"],
  ["COc1ccc2cc([C@H](C)C(=O)O)ccc2c1", "Compound metabolized"],
  ["CC1=C(CC(=O)O)c2cc(F)ccc2/C1=C\\c1ccc([S+](C)[O-])cc1 (stereo not given)", "Compound NOT metabolized"]
]}

---

ASSAY_PROTOCOL: The drug is tested on WLS-170 corresponding to human gut metagenome with ENA study accession number: PRJEB37062 and ENA sample accession number: ERS12561762 for biotransformation under anaerobic condition. The drug concentrations were measured over 9 timepoints collected between 0 and 24 hours of incubation by liquid-chromatography-coupled mass spectrometry (LC–MS)
TEST_PARAMETERS: 2 µM
REPORTED_PROPERTY: Bacterial Biotransformation

{"columns": ["COMPOUND", "RESULT"],
 "data": [
  ["CCN(CC)CCNC(=O)c1cc(S(C)(=O)=O)ccc1OC [TIAPRIDE]", "Compound NOT metabolized"],
  ["C#C[C@]1(OC(C)=O)CC[C@H]2[C@@H]3CCC4=CC(=O)CC[C@@H]4[C@H]3CC[C@@]21C [NORETHINDRONE ACETATE]", "Compound metabolized"],
  ["O=C(NC(Cc1cc(=O)[nH]c2ccccc12)C(=O)O)c1ccc(Cl)cc1 (stereo not drawn) [REBAMIPIDE]", "Compound NOT metabolized"],
  ["CCN(CC)CCOC(=O)C1(C2CCCCC2)CCCCC1 [DICYCLOMINE]", "Compound metabolized"],
  ["CN1CCC(OC(c2ccccc2)c2ccccc2)CC1", "Compound metabolized"],
  ["CN(C)C(=O)Oc1cccc([N+](C)(C)C)c1.[Br-] [NEOSTIGMINE BROMIDE]", "Compound NOT metabolized"],
  ["N[C@@H](Cc1ccc(N(CCCl)CCCl)cc1)C(=O)O", "Compound metabolized"],
  ["CCN(CC)CCNC(=O)c1ccc(NC(C)=O)cc1 [ACECAINIDE]", "Compound metabolized"],
  ["C[N+]12CCC(CC1)C(OC(=O)C(O)(c1ccccc1)c1ccccc1)C2.[Br-] (stereo not drawn) [CLIDINIUM BROMIDE]", "Compound metabolized"],
  ["CN1[C@@H]2CC[C@H]1C[C@@H](OC(=O)c1c[nH]c3ccccc13)C2 [TROPISETRON]", "Compound NOT metabolized"],
  ["Cc1nc(Nc2ncc(C(=O)Nc3c(C)cccc3Cl)s2)cc(N2CCN(CCO)CC2)n1 [DASATINIB ANHYDROUS]", "Compound metabolized"],
  ["Br.COc1ccc2c(c1)[C@]13CCCC[C@@H]1[C@H](C2)N(C)CC3.O [DEXTROMETHORPHAN HYDROBROMIDE]", "Compound NOT metabolized"],
  ["Cc1cc(C)cc(OCC2CNC(=O)O2)c1 (stereo not drawn) [METAXALONE]", "Compound metabolized"],
  ["CC(=O)O[C@H]1C(=O)[C@@]2(C)[C@H]([C@H](OC(=O)c3ccccc3)[C@]3(O)C[C@H](OC(=O)[C@H](O)[C@@H](NC(=O)c4ccccc4)c4ccccc4)C(C)=C1C3(C)C)[C@]1(OC(C)=O)CO[C@@H]1C[C@@H]2O [PACLITAXEL]", "Compound NOT metabolized"],
  ["CCOc1ccccc1OCCN[C@H](C)Cc1ccc(OC)c(S(N)(=O)=O)c1.Cl [TAMSULOSIN HYDROCHLORIDE]", "Compound metabolized"],
  ["CCCN(CCC)CCc1cccc2c1CC(=O)N2 [ROPINIROLE]", "Compound metabolized"],
  ["CCOC(=O)C1=C(C)NC(C)=C(C(=O)OC)C1c1cccc([N+](=O)[O-])c1 (stereo not drawn) [NITRENDIPINE]", "Compound metabolized"],
  ["CN(C)C(=O)Oc1cc(OC(=O)N(C)C)cc(C(O)CNC(C)(C)C)c1 (stereo not drawn) [BAMBUTEROL]", "Compound NOT metabolized"],
  ["CC#C[C@]1(O)CC[C@H]2[C@@H]3CCC4=CC(=O)CCC4=C3[C@@H](c3ccc(N(C)C)cc3)C[C@@]21C [MIFEPRISTONE]", "Compound metabolized"],
  ["O=C1N=C([O-])NC1(c1ccccc1)c1ccccc1.[Na+] [PHENYTOIN SODIUM]", "Compound metabolized"],
  ["CCCC(C)(COC(N)=O)COC(=O)NC(C)C (stereo not drawn) [CARISOPRODOL]", "Compound metabolized"],
  ["CCOC(=O)C1=C[C@]2(CC)CCCN3CCc4c(n1c1ccccc41)[C@@H]32 [VINPOCETINE]", "Compound metabolized"],
  ["C[C@]12C=CC(=O)C=C1CC[C@@H]1[C@@H]2C(=O)C[C@@]2(C)[C@H]1CC[C@]2(O)C(=O)CO [PREDNISONE]", "Compound metabolized"],
  ["C[C@]12CCC(=O)C=C1[C@@H]1C[C@@H]1[C@H]1[C@@H]3[C@@H]4C[C@@H]4[C@@]4(CCC(=O)O4)[C@@]3(C)CC[C@@H]12 [DROSPIRENONE]", "Compound metabolized"],
  ["CN(CCOc1ccc(CC2SC(=O)NC2=O)cc1)c1ccccn1.O=C(O)/C=C\\C(=O)O (stereo not drawn) [ROSIGLITAZONE MALEATE]", "Compound metabolized"],
  ["CN(C/C=C/C#CC(C)(C)C)Cc1cccc2ccccc12 [TERBINAFINE]", "Compound metabolized"],
  ["O=C(O)c1cc(/N=N/c2ccc(S(=O)(=O)Nc3ccccn3)cc2)ccc1O [SULFASALAZINE]", "Compound metabolized"],
  ["CC12CC3CC(C)(C1)CC(N)(C3)C2 [MEMANTINE]", "Compound metabolized"],
  ["CC(CCc1ccccc1)NCC(O)c1ccc(O)c(C(N)=O)c1 (stereo not drawn) [LABETALOL]", "Compound NOT metabolized"],
  ["COc1ccc2c(c1)c(CC(=O)O)c(C)n2C(=O)c1ccc(Cl)cc1 [INDOMETHACIN]", "Compound metabolized"],
  ["COC(=O)[C@H](c1ccccc1Cl)N1CCc2sccc2C1.O=S(=O)(O)O [CLOPIDOGREL BISULFATE]", "Compound metabolized"],
  ["COc1ccnc(C[S+]([O-])c2nc3ccc(OC(F)F)cc3[nH]2)c1OC (stereo not drawn) [PANTOPRAZOLE]", "Compound metabolized"],
  ["CCOC(=O)[C@H](CCc1ccccc1)N[C@@H](C)C(=O)N1Cc2ccccc2C[C@H]1C(=O)O", "Compound metabolized"]
]}
